Values compiled from patent US10125150B2.

# Measured On: JAK2 (a.a. 828-1132) (Homo sapiens (Human), UniProt O60674)
# Sequence (O60674 828-1132): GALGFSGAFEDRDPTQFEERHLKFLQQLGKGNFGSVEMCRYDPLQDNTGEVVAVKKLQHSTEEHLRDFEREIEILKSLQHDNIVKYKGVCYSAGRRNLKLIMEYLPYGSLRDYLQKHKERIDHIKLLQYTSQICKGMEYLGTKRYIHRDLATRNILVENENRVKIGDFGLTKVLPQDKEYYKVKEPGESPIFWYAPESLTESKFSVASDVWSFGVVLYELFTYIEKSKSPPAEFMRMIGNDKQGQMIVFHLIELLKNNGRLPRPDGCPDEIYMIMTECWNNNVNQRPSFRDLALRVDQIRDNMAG
# Protocol Description: In vitro JAK kinase assay (Example D), JAK2
# Type: biochemical
# Setup Conditions: ratio JAK2/JAK1 of IC50s, 1 mM ATP
JAK2/JAK1 by entry:

Below, 4 compounds whose answers are already recorded.
N#CCC(CN1CCN(C(=O)c2ccc(C#N)cc2F)CC1)n1ccc(-c2ncnc3[nH]ccc23)c1 (stereo not shown) [Form 6] | >10
C[C@H](O)CNCc1cc(OC2CCN([C@H]3C[C@](CC#N)(n4cc(-c5ncnc6[nH]ccc56)cn4)C3)CC2)nc(C(F)(F)F)c1 [Form 25] | >10
N#CCC1(n2cc(-c3ncnc4[nH]ccc34)cn2)CN([C@H]2CC[C@@H](Oc3cc(CN4CC[C@@H](O)C4)cc(C(F)(F)F)n3)CC2)C1 [Form 21] | >10
N#CC[C@]1(n2cc(-c3ncnc4[nH]ccc34)cn2)C[C@H](N2CCN(C(=O)c3ccnc(C(F)(F)F)n3)CC2)C1 [Form 10] | >10

QUERY: Identify the measured JAK2/JAK1 of N#CCC1(n2cc(-c3ncnc4[nH]ccc34)cn2)CN(C2CCN(C(=O)c3ccnc(C(F)(F)F)c3F)CC2)C1 [Form 7] for JAK2 (a.a. 828-1132) (Homo sapiens (Human), UniProt O60674).
RESULT: >10

QUERY: Param readout = JAK2/JAK1; param system = JAK2 (a.a. 828-1132) (Homo sapiens (Human), UniProt O60674); param query = C[C@@H](CO)NCc1cc(OC2CCN([C@H]3C[C@](CC#N)(n4cc(-c5ncnc6[nH]ccc56)cn4)C3)CC2)nc(C(F)(F)F)c1 [Form 23] ; response: value
RESULT: >10

QUERY: Record lookup: for JAK2 (a.a. 828-1132) (Homo sapiens (Human), UniProt O60674), what JAK2/JAK1 belongs to N#CCC1(n2cc(-c3ncnc4[nH]ccc34)cn2)CN(C2CCN(C(=O)c3ccnc(C(F)(F)F)n3)CC2)C1 [Form 9] ?
RESULT: >10

QUERY: // map N#CCC1(n2cc(-c3ncnc4[nH]ccc34)cn2)CN(C2CCN(C(=O)Nc3ccc(F)cc3C(F)(F)F)CC2)C1 [Form 8] to recorded JAK2/JAK1 (system: JAK2 (a.a. 828-1132) (Homo sapiens (Human), UniProt O60674))
RESULT: >10

QUERY: For the record CCNCc1cc(O[C@H]2CC[C@@H](N3CC(CC#N)(n4cc(-c5ncnc6[nH]ccc56)cn4)C3)CC2)nc(C(F)(F)F)c1 [Form 19] , what value of JAK2/JAK1 is listed for JAK2 (a.a. 828-1132) (Homo sapiens (Human), UniProt O60674)?
RESULT: >10

QUERY: GET /values?readout=JAK2/JAK1&system=JAK2 (a.a. 828-1132) (Homo sapiens (Human), UniProt O60674)&item= N#CCC(C1CCN(c2nc3cccnc3o2)C1)n1cc(-c2ncnc3[nH]ccc23)cn1 (stereo not shown) [Form 4]
RESULT: >10

QUERY: JAK2 (a.a. 828-1132) (Homo sapiens (Human), UniProt O60674) / JAK2/JAK1 / N#CCC(C1CCN(c2cccc(Cl)n2)C1)n1cc(-c2ncnc3[nH]ccc23)cn1 (single isomer, unassigned) [Form 3] : value?
RESULT: >10

QUERY: Kindly state the measured JAK2/JAK1 obtained for N#CCC1(n2cc(-c3ncnc4[nH]ccc34)cn2)CN([C@H]2CC[C@@H](Oc3cc(CN4CC[C@H](O)C4)cc(C(F)(F)F)n3)CC2)C1 [Form 22] with JAK2 (a.a. 828-1132) (Homo sapiens (Human), UniProt O60674).
RESULT: >10

QUERY: Look up JAK2/JAK1 with JAK2 (a.a. 828-1132) (Homo sapiens (Human), UniProt O60674) for this compound: C[C@H](NC(=O)c1cc(F)c(N2CC(CC#N)(n3cc(-c4ncnc5[nH]ccc45)cn3)C2)cc1F)C(F)(F)F [Form 16]
RESULT: >10

QUERY: # returns recorded JAK2/JAK1 (system: JAK2 (a.a. 828-1132) (Homo sapiens (Human), UniProt O60674)) for N#CC[C@]1(n2cc(-c3ncnc4[nH]ccc34)cn2)C[C@H](N2CCC(Oc3cc(CN4CC(O)C4)cc(C(F)(F)F)n3)CC2)C1 [Form 11]
RESULT: >10

QUERY: Any idea what JAK2/JAK1 came out for N#CC[C@]1(n2cc(-c3ncnc4[nH]ccc34)cn2)C[C@H](N2CCC(Oc3cc(CCO)cc(C(F)(F)F)n3)CC2)C1 [Form 26] on JAK2 (a.a. 828-1132) (Homo sapiens (Human), UniProt O60674)?
RESULT: >10

QUERY: What reported JAK2/JAK1 corresponds to C[C@@H](O)CNCc1cc(OC2CCN([C@H]3C[C@](CC#N)(n4cc(-c5ncnc6[nH]ccc56)cn4)C3)CC2)nc(C(F)(F)F)c1 [Form 24] on JAK2 (a.a. 828-1132) (Homo sapiens (Human), UniProt O60674)?
RESULT: >10
